Hey, just so you know, these numbers are from patent US8669271B2.

experimental_target: human GPR119 (Homo sapiens, UniProt Q8TDV5)
Construct: expression vector for human GPR119 cDNA (Acc. No. NP_848566)
Sequence (Q8TDV5 whole entry): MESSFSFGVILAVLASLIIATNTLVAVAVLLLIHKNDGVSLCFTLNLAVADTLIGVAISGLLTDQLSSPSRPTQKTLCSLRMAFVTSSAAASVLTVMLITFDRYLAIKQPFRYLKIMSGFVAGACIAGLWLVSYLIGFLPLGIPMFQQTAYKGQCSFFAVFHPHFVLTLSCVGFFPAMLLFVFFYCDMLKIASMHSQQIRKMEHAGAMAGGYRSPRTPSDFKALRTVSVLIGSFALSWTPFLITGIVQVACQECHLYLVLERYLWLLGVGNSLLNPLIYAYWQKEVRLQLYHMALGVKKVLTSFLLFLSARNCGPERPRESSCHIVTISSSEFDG
assay_remarks: AlphaScreen cAMP assay in Min-6/hGPR119 cells (activation of GPR119, intracellular cAMP)
condition: MIN6 cells stably transfected with human GPR119; cAMP by AlphaScreen after 45 minutes incubation at room temperature
Description: The compounds of formula I according to the invention modulate the activity of the G-protein-coupled receptor GPR119. The effect of the compounds on the activation of GPR119 and on the stimulation of intracellular cAMP concentration is determined using the AlphaScreen cAMP Assay Kit (Cat.No.#6760625R) made by PerkinElmer. MIN6 cells [Miyazaki J et al. Endocrinology. 1990 July; 127(1):126-32] are stably transfected with an expression vector for human GPR119 cDNA (Acc. No. NP_848566). […]
pEC50: −log10 of the molar value.
quantity_measured: pEC50

Would you please look over these solved cases?
                                   compound  assay_value
0  CC(=O)Nc1ccc(-c2ccc3c(c2)CC(C2CCN(C(=O)OC(C)C)CC2)O3)c(C)n1 (centres unmarked)         6.53
1  CC(=O)Nc1ccc(-c2ccc3c(c2)CC(C2CCN(C(=O)OC(C)C)CC2)O3)cn1 (centres unmarked)         7.59
2  CC(C)(C)OC(=O)N1CCC([C@H]2Cc3cc(-c4ccc(S(C)(=O)=O)cn4)ccc3O2)CC1         7.01
3  CS(=O)(=O)c1ccc(-c2ccc3c(c2)CC(C2CCN(C(=O)OC4CCC4)CC2)O3)cc1 (centres unmarked)         7.74

1 = CC(C)(C)OC(=O)N1CCC(C2(C)Cc3cc(-c4ccc(CS(C)(=O)=O)cc4F)ncc3O2)CC1 (centres unmarked)
2 = COc1cc(-c2cc3c(cn2)OC(C2CCN(C(=O)OC(C)(C)C)CC2)C3)ccn1 (centres unmarked)
3 = CC(C)(C)OC(=O)N1CCC(C2Cc3cc(-c4ccc(S(C)(=O)=O)cn4)ccc3O2)CC1 (centres unmarked)
Input: Ascending by pEC50, please. # format: label list in the order the request specifies
Output: 2, 1, 3
(2: 6.91, 1: 7.68, 3: 7.89)
